# SYSTEM TESTED: BTK (Homo sapiens)
# Construct: High control=Cell group with added DMSO and without compound, indicating microplate readings without BTK degradation; endogenous in cells; host or cells: TMD-8 cells
# Sequence (Q06187 whole entry): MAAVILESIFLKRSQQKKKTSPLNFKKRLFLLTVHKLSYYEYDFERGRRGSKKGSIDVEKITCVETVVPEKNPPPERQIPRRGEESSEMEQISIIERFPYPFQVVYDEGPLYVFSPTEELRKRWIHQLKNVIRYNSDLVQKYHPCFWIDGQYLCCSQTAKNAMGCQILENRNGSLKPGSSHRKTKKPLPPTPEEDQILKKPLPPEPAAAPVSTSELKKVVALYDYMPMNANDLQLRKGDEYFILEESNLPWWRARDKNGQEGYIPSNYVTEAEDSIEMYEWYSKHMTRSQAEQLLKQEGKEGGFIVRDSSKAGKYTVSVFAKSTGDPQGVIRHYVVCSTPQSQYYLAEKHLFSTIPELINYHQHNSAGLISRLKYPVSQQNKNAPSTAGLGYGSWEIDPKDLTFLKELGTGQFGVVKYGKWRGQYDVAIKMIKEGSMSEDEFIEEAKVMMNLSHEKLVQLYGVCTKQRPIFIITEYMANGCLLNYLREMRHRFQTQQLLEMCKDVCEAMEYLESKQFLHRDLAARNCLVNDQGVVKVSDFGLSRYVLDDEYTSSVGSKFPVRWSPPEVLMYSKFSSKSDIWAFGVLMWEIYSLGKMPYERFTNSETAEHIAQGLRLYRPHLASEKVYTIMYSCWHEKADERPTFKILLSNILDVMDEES
# ASSAY DETAILS: Cell Degradation: BTK degradation in TMD-8 cells, HTRF assay
# Format: cell-based
# REPORTED CONDITIONS: 6 h treatment, IC50 (DC50) of BTK degradation
# Experimental: TMD-8 cells are treated with compounds in 0.2% DMSO, dilution is done according to the following protocol: (1) make 500× stock solution in DMSO from 1 mM by 6-fold dilution, total 8 doses were included; (2) make 2× solution in cell culture medium by transferring 0.5 μl 500× stock solution into 125 μl medium; (3) 15 μl of 2× solution is added to cells and incubate for 6 h. […]
EXPERIMENTAL ENDPOINT: DC50 (nM)

Consider the worked cases shown below.
[[record]]
compound = "Cc1cc(-c2ncnc3[nH]c(-c4ccc(N5CCN(CC6CCN(c7ccc(N8CCC(=O)NC8=O)cc7)CC6)CC5)cn4)cc23)ccc1[C@H](C)NC(=O)c1nc(C(C)(C)C)no1 [Example 147]"
unit_tag = "nM"
endpoint_value = 52.7

[[record]]
compound = "CC(C)(C)c1noc(C(=O)NCc2ccc(-c3ncnc4[nH]c(-c5ccc(C6CCN(CC7CCN(c8ccc(N9CCC(=O)NC9=O)cc8)CC7)CC6)cc5)cc34)cc2F)n1 [Example 23]"
unit_tag = "nM"
endpoint_value = 0.87


[a] Cc1cc(-c2ncnc3[nH]c(-c4c(C)nn(C5CCN(CC6CCN(c7ccc(N8CCC(=O)NC8=O)cc7)CC6)CC5)c4C)cc23)ccc1[C@@H](C)NC(=O)c1noc(C(C)(C)C)n1 [Example 62]
[b] Cc1cc(-c2ncnc3[nH]c(-c4ccc(N5CCN(CC6CCN(c7ccc(N8CCC(=O)NC8=O)cc7)CC6)C(=O)C5)cc4)cc23)ccc1[C@@H](C)NC(=O)c1nc(C(C)(C)C)no1 [Example 190]
[ask] Lowest DC50? choose a or b Pick one and reply with its label.
[reply] b
